Test system: 616215-338-R-J1-PDC complex spheroid viability;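 also: spheroids exposed to agents for seven days before viability readout; 100% = DMSO vehicle control viability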
Experiment: Anticancer human tumor 616215-338-R-J1-PDC patient-derived colon adenocarcinoma cell line growth inhibition [RAS]
Conditions: second compound 0.0316 µM; first compound 0.00316 µM; hits give low values
ASSAY_METRIC: viability, T/C (%)

* Nc1ccn(C2OC(CO)C(O)C2(F)F)c(=O)n1 (stereo unspecified) + C#Cc1c(F)ccc2cc(O)cc(-c3ncc4c(N5CC6CCC(C5)N6)nc(OCC56CCCN5CC(F)C6)nc4c3F)c12 | 113
* CCN1CCN(Cc2ccc(Nc3ncc(F)c(-c4cc(F)c5nc(C)n(C(C)C)c5c4)n3)nc2)CC1 + C#Cc1c(F)ccc2cc(O)cc(-c3ncc4c(N5CC6CCC(C5)N6)nc(OCC56CCCN5CC(F)C6)nc4c3F)c12 | 96.4
* O=C(c1ccc(F)c(F)c1Nc1ccc(I)cc1F)N1CC(O)([C@@H]2CCCCN2)C1 + C=CC(=O)N1CCN(c2nc(OCC3CCCN3C)nc3c(F)c(-c4nc(N)cc(C)c4C(F)(F)F)c(Cl)cc23)C(C)C1 | 110
* Nc1ccn(C2OC(CO)C(O)C2(F)F)c(=O)n1 (stereo unspecified) + C=CC(=O)N1CCN(c2nc(OCC3CCCN3C)nc3c(F)c(-c4nc(N)cc(C)c4C(F)(F)F)c(Cl)cc23)C(C)C1 | 108
* C=CC(=O)N1CCN(c2nc(OCC3CCCN3C)nc3c(F)c(-c4nc(N)cc(C)c4C(F)(F)F)c(Cl)cc23)C(C)C1 (stereo unspecified) + C#Cc1c(F)ccc2cc(O)cc(-c3ncc4c(N5CC6CCC(C5)N6)nc(OCC56CCCN5CC(F)C6)nc4c3F)c12 | 107
* C=CC(=O)Nc1cc(Nc2nccc(-c3cn(C)c4ccccc34)n2)c(OC)cc1N(C)CCN(C)C + C#Cc1c(F)ccc2cc(O)cc(-c3ncc4c(N5CC6CCC(C5)N6)nc(OCC56CCCN5CC(F)C6)nc4c3F)c12 | 101
* CCN1CCN(Cc2ccc(Nc3ncc(F)c(-c4cc(F)c5nc(C)n(C(C)C)c5c4)n3)nc2)CC1 + C=CC(=O)N1CCN(c2nc(OCC3CCCN3C)nc3c(F)c(-c4nc(N)cc(C)c4C(F)(F)F)c(Cl)cc23)C(C)C1 | 113
* CC(C)n1nc(-c2ccc3oc(N)nc3c2)c2c(N)ncnc21 + C#Cc1c(F)ccc2cc(O)cc(-c3ncc4c(N5CC6CCC(C5)N6)nc(OCC56CCCN5CC(F)C6)nc4c3F)c12 | 112
* CC(C)n1nc(-c2ccc3oc(N)nc3c2)c2c(N)ncnc21 + C=CC(=O)N1CCN(c2nc(OCC3CCCN3C)nc3c(F)c(-c4nc(N)cc(C)c4C(F)(F)F)c(Cl)cc23)C(C)C1 | 113
* C=CC(=O)Nc1cc(Nc2nccc(-c3cn(C)c4ccccc34)n2)c(OC)cc1N(C)CCN(C)C + C=CC(=O)N1CCN(c2nc(OCC3CCCN3C)nc3c(F)c(-c4nc(N)cc(C)c4C(F)(F)F)c(Cl)cc23)C(C)C1 | 101
* O=C(c1ccc(F)c(F)c1Nc1ccc(I)cc1F)N1CC(O)([C@@H]2CCCCN2)C1 + C#Cc1c(F)ccc2cc(O)cc(-c3ncc4c(N5CC6CCC(C5)N6)nc(OCC56CCCN5CC(F)C6)nc4c3F)c12 | 112

All values here come from PubChem BioAssay AID2060898.
